The entries below come with measured CC50 at 48 h values attached.
Assay: Cytotoxicity against human THP-1 cells incubated for 48 hrs by MTS/PMS assay
Format: toxicity, cell-based

These solved cases illustrate the format of a correct answer.
{"columns": ["MOLECULE", "CC50 at 48 h"],
 "data": [
  ["CON=C1CCC(N(C)N2CCN(c3nc(=O)c4cc(C(F)(F)F)cc([N+](=O)[O-])c4s3)CC2C)CC1 (stereo unspecified)", "12.3 µg/mL"],
  ["O=c1nc(N2CCN(NC3CCC(F)(F)CC3)CC2)sc2c([N+](=O)[O-])cc(C(F)(F)F)cc12", "> 64 µg/mL"],
  ["CN(C1CCC(C)(C)CC1)N1CCN(c2nc(=O)c3cc(C(F)(F)F)cc([N+](=O)[O-])c3s2)CC1(C)C", "> 64 µg/mL"],
  ["NNC(=O)c1ccncc1", "> 64 µg/mL"]
]}

Below: the item to evaluate.
Please indicate CC50 at 48 h recorded for CCON=C1CCC(N(C)N2CCN(c3nc(=O)c4cc(C(F)(F)F)cc([N+](=O)[O-])c4s3)CC2)CC1 (stereo unspecified)
50.1 µg/mL

====

Target: hERG (KCNH2) (Homo sapiens)
Sequence (Q12809 whole entry): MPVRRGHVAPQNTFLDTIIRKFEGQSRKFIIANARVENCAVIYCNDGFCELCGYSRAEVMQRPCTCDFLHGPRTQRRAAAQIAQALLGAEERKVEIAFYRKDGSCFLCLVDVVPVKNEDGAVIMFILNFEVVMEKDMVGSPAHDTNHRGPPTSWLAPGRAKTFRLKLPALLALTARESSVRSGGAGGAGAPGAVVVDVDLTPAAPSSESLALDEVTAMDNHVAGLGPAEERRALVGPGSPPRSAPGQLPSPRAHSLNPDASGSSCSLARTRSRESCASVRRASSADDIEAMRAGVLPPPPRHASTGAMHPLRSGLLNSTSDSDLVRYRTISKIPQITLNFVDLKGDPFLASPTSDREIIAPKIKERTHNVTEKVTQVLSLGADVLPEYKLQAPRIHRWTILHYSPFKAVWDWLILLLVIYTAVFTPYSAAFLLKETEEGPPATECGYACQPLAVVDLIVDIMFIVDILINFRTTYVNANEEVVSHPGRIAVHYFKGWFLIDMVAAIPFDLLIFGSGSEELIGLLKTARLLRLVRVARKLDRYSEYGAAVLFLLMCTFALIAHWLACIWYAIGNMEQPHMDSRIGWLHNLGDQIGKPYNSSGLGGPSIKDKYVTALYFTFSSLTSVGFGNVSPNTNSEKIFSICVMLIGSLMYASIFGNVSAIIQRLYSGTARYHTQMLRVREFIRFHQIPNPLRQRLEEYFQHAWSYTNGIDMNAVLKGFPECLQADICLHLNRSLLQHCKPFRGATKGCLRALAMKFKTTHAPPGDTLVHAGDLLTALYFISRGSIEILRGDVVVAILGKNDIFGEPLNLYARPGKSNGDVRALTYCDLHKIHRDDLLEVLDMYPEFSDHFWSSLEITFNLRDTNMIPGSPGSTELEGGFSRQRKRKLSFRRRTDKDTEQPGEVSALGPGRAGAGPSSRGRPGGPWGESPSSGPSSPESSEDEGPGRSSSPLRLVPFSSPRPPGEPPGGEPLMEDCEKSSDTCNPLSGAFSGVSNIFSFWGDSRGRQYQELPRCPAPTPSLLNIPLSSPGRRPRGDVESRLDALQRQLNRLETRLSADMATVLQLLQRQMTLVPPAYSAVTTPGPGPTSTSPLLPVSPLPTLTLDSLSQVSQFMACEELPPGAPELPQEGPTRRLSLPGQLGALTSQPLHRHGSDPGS
Experiment: Inhibition of human ERG expressed in HEK293 cells at 10 uM by whole cell patch clamp assay relative to control
Format: toxicity, cell-based
Details: HEK293 cells expressing human ERG
EXPERIMENTAL_READOUT: inhibition at 10 µM (%)
Give the quantity in %, number only.

{"columns": ["MOLECULE", "TARGET_ENTITY", "VALUE_UNIT", "inhibition at 10 µM"],
 "data": [
  ["O=c1nc(N2CCN(NC3CCC(F)(F)CC3)CC2)sc2c([N+](=O)[O-])cc(C(F)(F)F)cc12", "hERG (KCNH2) (Homo sapiens)", "%", 46.8],
  ["CN(C1CCCCC1)N1CCN(c2nc(=O)c3cc(C(F)(F)F)cc([N+](=O)[O-])c3s2)CC1(C)C", "hERG (KCNH2) (Homo sapiens)", "%", 45.7],
  ["CN(C1CCCCC1)N1CCN(c2nc(=O)c3cc(C(F)(F)F)cc([N+](=O)[O-])c3s2)CC1", "hERG (KCNH2) (Homo sapiens)", "%", 27.3],
  ["CC1(C)CCC(NN2CCN(c3nc(=O)c4cc(C(F)(F)F)cc([N+](=O)[O-])c4s3)CC2)CC1", "hERG (KCNH2) (Homo sapiens)", "%", 19.9],
  ["CON=C1CCC(N(C)N2CCN(c3nc(=O)c4cc(C(F)(F)F)cc([N+](=O)[O-])c4s3)CC2C)CC1 (centres undefined)", "hERG (KCNH2) (Homo sapiens)", "%", 23.1],
  ["CC1CCC(N(C)N2CCN(c3nc(=O)c4cc(C(F)(F)F)cc([N+](=O)[O-])c4s3)CC2)CC1 (centres undefined)", "hERG (KCNH2) (Homo sapiens)", "%", 32.7],
  ["CN(C1CCC(C)(C)CC1)N1CCN(c2nc(=O)c3cc(C(F)(F)F)cc([N+](=O)[O-])c3s2)CC1", "hERG (KCNH2) (Homo sapiens)", "%", 6.1],
  ["CC1CN(c2nc(=O)c3cc(C(F)(F)F)cc([N+](=O)[O-])c3s2)CCN1N(C)C1CCC(C)(C)CC1 (centres undefined)", "hERG (KCNH2) (Homo sapiens)", "%", 35.5]
]}

# input for lookup
Consider the molecule CN(C1CCC(C)(C)CC1)N1CCN(c2nc(=O)c3cc(C(F)(F)F)cc([N+](=O)[O-])c3s2)CC1(C)C . State its measured inhibition at 10 µM.
18.1
